Test system: HepG2
Assay: cytotoxicity call (relative viability < 0.9)
Settings: 10 µM
Hit rate of the full screen: of about 39,000 compounds, about 3,300 (8.5%) were called active. This is one part of a sample in which actives are shown more often than they occur.
Write down one outcome, taken from active, inactive

Below are worked cases with known answers.
C[C@@H]1CN([C@@H](C)CO)C(=O)c2cc(NC(=O)Nc3ccc(F)cc3)ccc2O[C@@H]1CN(C)S(C)(=O)=O; inactive
COc1ccc(CN(C)C[C@@H]2OCCCC[C@@H](C)Oc3ccc(NC(=O)Nc4ccc(OC)cc4)cc3C(=O)N([C@H](C)CO)C[C@@H]2C)cc1; inactive
CCOC(=O)Cc1c(C)[nH]c(=O)[nH]c1=O; inactive
COc1cc(NC(=O)CCN2CCC(OC(=O)Nc3ccccc3-c3ccccc3)CC2)c(Cl)cc1CNC[C@H](O)c1ccc(O)c2nc(O)ccc12; active
C[C@H]1CN([C@@H](C)CO)C(=O)c2cccc(NC(=O)c3ccc(-c4nccs4)cc3)c2O[C@@H]1CN(C)Cc1ccc2c(c1)OCO2; inactive

Exam item: What did the test return for CC(=O)N1[C@@H]2c3ccc(-c4ccccc4)c(=O)n3C[C@H]1[C@H](CO)[C@H]2C(=O)NCCCN1CCOCC1 ?
Marked response: inactive

Exam item: What did the test return for COc1ccc(CN(C)C[C@@H]2OCCCC[C@@H](C)Oc3ccc(NC(=O)Nc4ccc(OC)cc4)cc3C(=O)N([C@@H](C)CO)C[C@@H]2C)cc1 ?
Marked response: active
